Tested System: glucocerebrosidase (Gcase) (Homo sapiens)
Construct: micellar solution containing 10 nM GCase and 100 nM saposin C (Enzo ALX-201-262-C050)
Sequence (P04062 40-536): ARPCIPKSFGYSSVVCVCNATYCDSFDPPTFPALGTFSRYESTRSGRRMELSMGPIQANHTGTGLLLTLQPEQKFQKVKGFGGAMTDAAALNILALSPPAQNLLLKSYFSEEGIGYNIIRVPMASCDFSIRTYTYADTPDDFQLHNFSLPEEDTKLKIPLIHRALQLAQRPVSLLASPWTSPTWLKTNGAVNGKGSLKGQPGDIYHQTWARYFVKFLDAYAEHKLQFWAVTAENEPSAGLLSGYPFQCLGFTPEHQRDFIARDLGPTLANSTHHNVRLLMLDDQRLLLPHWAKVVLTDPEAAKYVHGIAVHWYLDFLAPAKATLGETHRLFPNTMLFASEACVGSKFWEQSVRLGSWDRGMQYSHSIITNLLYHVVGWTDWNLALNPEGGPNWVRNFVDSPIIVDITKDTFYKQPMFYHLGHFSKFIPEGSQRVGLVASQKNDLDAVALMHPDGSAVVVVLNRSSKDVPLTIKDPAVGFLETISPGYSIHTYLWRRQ
Protocol Notes: Glucocerebrosidase (Gcase) activation assay, 4-methylumbelliferyl-beta-D-glucopyranoside substrate, with saposin C
Assay type: biochemical
Condition: read-out: Percent Gcase Activation 1 μM Test Compound
Listed next: entries and their corresponding activation at 1 µM.
Reported Metric: activation at 1 µM

                                   molecule                             tested_system  test_result
0        O=C(NCCOc1ccccc1)c1cnc2n(c1=O)CCS2  glucocerebrosidase (Gcase) (Homo sapiens)     5 to 20%
1  CCCCCO[C@H]1CC[C@H](NC(=O)c2cnc3n(c2=O)CCS3)CC1  glucocerebrosidase (Gcase) (Homo sapiens)     5 to 20%
2  CCCCC1CCC(NC(=O)c2cnc3n(c2=O)CCS3)CC1 (stereo not drawn)  glucocerebrosidase (Gcase) (Homo sapiens)        > 20%
